Target: Metabotropic glutamate receptor 5 (Rattus norvegicus, UniProt P31424)
Sequence (P31424 whole entry): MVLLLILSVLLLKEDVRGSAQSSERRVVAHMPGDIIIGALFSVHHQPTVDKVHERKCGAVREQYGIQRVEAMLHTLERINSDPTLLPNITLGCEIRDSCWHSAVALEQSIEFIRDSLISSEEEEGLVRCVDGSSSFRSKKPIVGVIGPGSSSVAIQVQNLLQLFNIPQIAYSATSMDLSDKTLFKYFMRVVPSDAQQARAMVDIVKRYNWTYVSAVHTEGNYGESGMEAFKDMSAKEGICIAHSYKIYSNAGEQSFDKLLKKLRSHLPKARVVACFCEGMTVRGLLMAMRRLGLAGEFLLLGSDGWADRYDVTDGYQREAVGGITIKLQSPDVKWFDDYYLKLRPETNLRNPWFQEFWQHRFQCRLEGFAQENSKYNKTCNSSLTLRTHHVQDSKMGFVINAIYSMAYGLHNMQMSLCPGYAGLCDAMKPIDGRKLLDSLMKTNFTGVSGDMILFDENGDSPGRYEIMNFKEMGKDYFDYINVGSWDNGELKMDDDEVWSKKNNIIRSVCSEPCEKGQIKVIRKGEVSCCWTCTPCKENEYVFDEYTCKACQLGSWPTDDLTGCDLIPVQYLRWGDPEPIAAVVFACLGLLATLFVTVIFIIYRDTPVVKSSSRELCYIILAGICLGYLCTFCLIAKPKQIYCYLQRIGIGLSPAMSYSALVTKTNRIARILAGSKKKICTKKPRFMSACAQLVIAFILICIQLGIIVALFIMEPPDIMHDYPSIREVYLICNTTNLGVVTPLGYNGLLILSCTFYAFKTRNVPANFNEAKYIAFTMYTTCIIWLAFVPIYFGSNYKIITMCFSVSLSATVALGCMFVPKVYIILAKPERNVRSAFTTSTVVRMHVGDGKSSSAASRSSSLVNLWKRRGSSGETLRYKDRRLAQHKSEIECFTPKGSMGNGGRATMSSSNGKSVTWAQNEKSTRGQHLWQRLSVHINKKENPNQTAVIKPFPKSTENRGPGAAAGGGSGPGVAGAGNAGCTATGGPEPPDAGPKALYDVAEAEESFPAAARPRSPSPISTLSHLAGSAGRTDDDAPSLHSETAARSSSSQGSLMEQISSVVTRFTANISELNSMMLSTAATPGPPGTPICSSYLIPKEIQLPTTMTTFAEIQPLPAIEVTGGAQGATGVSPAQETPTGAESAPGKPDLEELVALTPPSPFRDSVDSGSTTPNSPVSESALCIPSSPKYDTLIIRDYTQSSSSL
Test: In vitro functional activity measured by changes in cytosolic [Ca2+] concentrations against rat metabotropic glutamate receptor 5
measurement-label: IC50 (nM)

Known IC50 results, listed for orientation:
N#Cc1cc(F)cc(-n2ccc(-c3ccccn3)c2)c1	3
N#Cc1cc(Oc2cccnc2)cc(-n2nnc(-c3ccccn3)n2)c1	15
Cc1cc(C#N)cc(-n2nnc(-c3ccccn3)n2)c1	6

[1] N#Cc1cccc(-n2nnc(-c3ncc[nH]3)n2)c1
[2] N#Cc1cc(Cl)cc(-n2nnc(-c3ccccn3)n2)c1
# returns the entry with the larger IC50; inputs 1 and 2 Returns: label corresponding to the selected item.
1
(1: 77 nM, 2: 7 nM)

[a] Clc1cccc(-n2nnc(-c3ccccn3)n2)c1Cl
[b] N#Cc1cc(N)cc(-n2nnc(-c3ccccn3)n2)c1
I would appreciate it if you could say which entry, a or b , has the lower IC50 value. Kindly give the label for the entry you pick.
b

[a] N#Cc1cc(O)cc(-n2nnc(-c3ccccn3)n2)c1
[b] N#Cc1cc(C#N)cc(-n2nnc(-c3ccccn3)n2)c1
[c] N#Cc1cccc(-n2nnc(-c3ccccn3)n2)c1
[d] N#Cc1cccc(-n2ccc(-c3ccccn3)c2)c1
Put the compounds in ascending order of IC50. # respond with the labels, arranged in the requested order
b, c, d, a
(b: 34 nM, c: 73 nM, d: 190 nM, a: 562 nM)

[I] c1ccc(-c2nnn(-c3cccc(-c4cccnc4)c3)n2)nc1
[II] COc1cc(C#N)cc(-n2nnc(-c3ccccn3)n2)c1
Form field 'greater IC50' accepts I or II ; which applies? State your choice using its label.
I
